# Protocol: qHTS RealTime-Glo MT Cell Viability Assay in HEK293 cells - 0 hour (AID 1224880); also: top concentration of the series differs between compounds; % is scaled to controls: 0 for no effect and ±100 for the full control effect; nearly all actives have a fitted effect of over 45% in size
# Experimental Parameters: RealTime-Glo luminescence; series mostly up to 76.8 µM
Records with an inconclusive call do not appear. Calls of active or inactive are those of the source. Calls follow the shape of the dose curve; as a rule, active = well fitted cell-killing curve with a large enough effect in the repeat runs; inconclusive = weak or mixed curves, or effect the other way; inactive = flat fitted curve, though single readings scatter.
Measurement Label: activity change, negative = cytotoxicity

Look over these answered cases.
Consider `CCCC(=O)OC(C)(C)Cc1ccccc1` . Its measured activity change, negative = cytotoxicity is inactive

For this molecule ( `CCCCCCCCCCCCCCCC[N+](C)(C)CC` ), measured activity change, negative = cytotoxicity is inactive

response.value for `C#C[C@]1(OC(C)=O)CC[C@H]2[C@@H]3CCC4=C/C(=N/O)CC[C@@H]4[C@H]3CC[C@@]21CC` (field: activity change, negative = cytotoxicity) = inactive

get_value(item= `O=c1oc2cc(O)ccc2c2oc3cc(O)ccc3c12` , readout=activity change, negative = cytotoxicity) returns inactive

For this molecule ( `Nc1nc(-c2ccccc2)cs1` ), measured activity change, negative = cytotoxicity is inactive

Further cases:
Reported activity change, negative = cytotoxicity of `O=C(O)CN(CCN(CC(=O)O)CC(=O)O)CC(=O)O` : 0.0989% [at 2.72 µM] (inactive)

Reported activity change, negative = cytotoxicity ( `CCCC(=O)OCCc1ccccc1` ) = inactive

Consider `NC(=O)c1cccc([N+](=O)[O-])c1` . Its measured activity change, negative = cytotoxicity is inactive

* * *

# Protocol: qHTS assay to identify small molecule agonists of the estrogen receptor beta (ER-beta) signaling pathway - cell viability counter screen (AID 1259380); also: nearly all actives have a fitted effect of over 30% in size
# Experimental Parameters: ER-beta-bla HEK293T viability, CellTiter-Glo luminescence, 16 h; series mostly up to 92.4 µM
Results filed as inconclusive are left out. Activity calls are given as the source filed them. The call rests on the fitted dose curve; in most records, active means well fitted cell-killing curve with a large enough effect in the repeat runs; inconclusive means weak or mixed curves, or effect the other way; inactive means flat fitted curve, though single readings scatter.
// classify into t for active, f for inactive

// below: answered compounds
input: Check the results log: what was the call for `CC[N+](CC)(CC)CCOC(=O)C(C1CCCC1)C1CCCC1` ?
output: f

input: Status in this test for `OC/C=C/CO` ?
output: f

input: Answer briefly: the call reported for `CC(C)OC(=O)C(O)(CC(=O)O)CC(=O)O` in this assay.
output: f

input: Record lookup: outcome of this test for `O=C1NC(=O)[C@@H]2CC=CC[C@H]12` ?
output: t

More entries:
input: Answer briefly: the call reported for `CC(C)CCCCCOC(=O)CCS` in this assay.
output: f

input: Can you look up the reported call for `ClCCl` for me?
output: f

input: So what was the verdict on `OC[C@H]1O[C@H](O[C@H]2O[C@H](CO)[C@@H](O)[C@H](O)[C@H]2O)[C@H](O)[C@@H](O)[C@@H]1O` in this test?
output: f

input: Hi, do you know how `Oc1ccccc1O` came out in this test?
output: f

input: Outcome? C=CCCC(=O)/C=C/C1C(C)=CCCC1(C)C (centres undefined)
output: f

* * *

# Protocol: A CellTox Green Cytotoxicity Assay to monitor cytotoxicity in HepG2 cells - 16 hour (AID 1224876); also: nearly all actives have a fitted effect of over 45% in size
# Experimental Parameters: CellTox Green fluorescence; series mostly up to 76.8 µM
Records with an inconclusive call do not appear. Activity calls are given as the source filed them. The call rests on the fitted dose curve; in most records, active means well fitted activation curve with a large enough effect in the repeat runs; inconclusive means weak or mixed curves; inactive means flat fitted curve, though single readings scatter.
Respond with a class label; see 1 = active, 0 = inactive

input: What was the test verdict on `O=C(O)Cc1ccc2c(c1)C(=O)c1ccccc1CO2` ?
output: 0

input: Per the assay record, what outcome was assigned to `CN(C)Cc1ccccc1O` ?
output: 0

input: Per the assay record, what outcome was assigned to `CN1CCC[C@@H]1CCO[C@](C)(c1ccccc1)c1ccc(Cl)cc1` ?
output: 1

input: Could you check what this test reported for `Nc1cc(Cl)c(O)c(Cl)c1` ?
output: 0

input: Hi, do you know how `Oc1cc(Cl)cc(Cl)c1Cl` came out in this test?
output: 0

* * *

# Protocol: qHTS assay to identify small molecule agonists or antagonists of the thyroid stimulating hormone receptor (TSHR) signaling pathway - wild type cell line counter screen (AID 1259384); also: % is scaled to controls: 0 for no effect and ±100 for the full control effect
# Experimental Parameters: HEK293 wild type, cAMP HTRF counter-screen, stronger effect = higher value; series mostly up to 92.4 µM
Inconclusive results are not listed. Activity calls are given as the source filed them. Calls come from the whole dose curve.
Measurement Label: cAMP activity change

Record `Cc1c(C)c2c(c(C)c1OC(=O)c1cccnc1)CC[C@@](C)(CCC[C@H](C)CCC[C@H](C)CCCC(C)C)O2` , field cAMP activity change: inactive

`C[C@H]1NCc2cc(-c3ccc4c(=O)c(C(=O)O)cn(C5CC5)c4c3OC(F)F)ccc21` yielded cAMP activity change of -2.09% [at 18.9 µM] (inactive)

Recorded result, `CCCc1ccc(OCC(=O)N2CCN(C(=O)COc3ccc(CCC)cc3OC)CC2)c(OC)c1` , cAMP activity change: inactive

`O=C(O)c1cc(N=Nc2ccc([N+](=O)[O-])cc2)ccc1O` yielded cAMP activity change of inactive

Continuing:
Lab book: cAMP activity change of `CC1=Nc2ccccc2C1(C)C` noted as inactive

* * *

# Protocol: qHTS assay to identify aromatase inhibitors - cell viability counter screen (AID 743084);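 also: cells stimulated with testosterone during compound exposure; nearly all actives have a fitted effect of over 55% in size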
# Experimental Parameters: MCF-7 aro ERE viability, CellTiter-Fluor, 24 h; series mostly up to 70.3 µM
Results filed as inconclusive are left out. The source made the active and inactive calls. Calls follow the shape of the dose curve; as a rule, active = well fitted cell-killing curve with a large enough effect in the repeat runs; inconclusive = weak or mixed curves, or effect the other way; inactive = no such curve, though single readings can be large or run the other way.
Respond using exactly one of the listed classes: true = active, false = inactive

Below are worked cases with known answers.
input: Check the results log: what was the call for `Cc1ccc(C(=O)O)cc1` ?
output: false

input: What did this assay record as the result for `COC(=O)Nc1nc2ccc(C(=O)c3ccccc3)cc2[nH]1` ?
output: false

Others:
input: Could you check what this test reported for `CC1(C)[C@@H](O)CC[C@]2(C)[C@H]3C(=O)C=C4[C@@H]5C[C@@](C)(C(=O)O)CC[C@]5(C)CC[C@@]4(C)[C@]3(C)CC[C@@H]12` ?
output: false

input: For `C[C@@H](O)[C@H](N)C(=O)O` , which call appears in the assay record?
output: false

input: Recorded test outcome, item `CC(C)Cn1cnc2c(N)nc3ccccc3c21`
output: false

input: Tell me the assay call for `CC(=O)OCC=C(C)C` please.
output: false

input: Test call, this molecule: `Cc1ccc(C(C)C)cc2c(C)ccc1-2`
output: false

input: Fill in: this test's call for `Cc1ccc(N/N=c2\c(=O)cc/c(=N\Nc3ccc(S(=O)(=O)O)cc3)c2=O)c(C)c1` is ___
output: true

input: Can you look up the reported call for `c1cnccn1` for me?
output: false

input: Any idea what this test logged for `CC[N+](CC)(CC)CCOC(=O)C(C1CCCC1)C1CCCC1` ?
output: false

input: Which outcome was entered for the molecule `CCO[Si](OCC)(OCC)OCC` in this test?
output: false

input: Hey, what did the test say about `C=C(C)C(=O)OCCCCCCCCCC` ?
output: false

* * *

# Tested System: Bile acid receptor (Homo sapiens) (UniProt Q96RI1)
# Sequence (Q96RI1 whole entry, looked up): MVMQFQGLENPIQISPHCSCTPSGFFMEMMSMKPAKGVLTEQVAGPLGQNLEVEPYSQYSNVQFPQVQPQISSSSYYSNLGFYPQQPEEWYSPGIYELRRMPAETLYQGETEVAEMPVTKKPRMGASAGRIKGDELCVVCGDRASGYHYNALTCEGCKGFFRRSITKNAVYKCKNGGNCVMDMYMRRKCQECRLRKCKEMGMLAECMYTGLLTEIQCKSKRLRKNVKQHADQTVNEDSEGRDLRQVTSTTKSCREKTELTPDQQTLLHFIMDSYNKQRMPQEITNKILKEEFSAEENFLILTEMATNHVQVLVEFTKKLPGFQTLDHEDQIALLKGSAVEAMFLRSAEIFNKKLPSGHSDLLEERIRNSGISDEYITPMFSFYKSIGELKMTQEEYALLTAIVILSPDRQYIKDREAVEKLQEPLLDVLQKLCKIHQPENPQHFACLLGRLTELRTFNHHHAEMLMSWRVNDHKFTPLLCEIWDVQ
# Protocol: qHTS assay to identify small molecule agonists of the farnesoid-X-receptor (FXR) signaling pathway (AID 743220); also: % is scaled to controls: 0 for no effect and ±100 for the full control effect
# Experimental Parameters: HEK293T FXR-UAS-bla, beta-lactamase FRET ratio, 16 h; series mostly up to 62.6 µM
Results filed as inconclusive are left out. Calls of active or inactive are those of the source. Calls follow the shape of the dose curve; as a rule, active = well fitted activation curve with a large enough effect in the signal ratio in the repeat runs (not every such curve was filed as active); inconclusive = weak or mixed curves, or effect the other way; inactive = flat fitted curve, though single readings scatter; the % refers to the signal ratio.
Hi there, use one of these labels in your reply, thanks! active, inactive

input: Fill in: this test's call for `Cc1ccc(N/N=c2\c(=O)cc/c(=N\Nc3ccc(S(=O)(=O)O)cc3)c2=O)c(C)c1` is ___
output: inactive

* * *

# Protocol: qHTS assay to identify small molecule agonists of the hypoxia (HIF-1) signaling pathway (AID 1224846); also: % is scaled to controls: 0 for no effect and ±100 for the full control effect
# Experimental Parameters: HRE-bla ME-180 cells, beta-lactamase ratio, 17 h; series mostly up to 76.8 µM
Results filed as inconclusive are left out. The source made the active and inactive calls. Calls come from the whole dose curve; as a rule, active = well fitted activation curve with a large enough effect in the signal ratio in the repeat runs (not every such curve was filed as active); inconclusive = weak or mixed curves; inactive = flat fitted curve, though single readings scatter; the % refers to the signal ratio.
Measurement Label: activation

Form field activation, entry `O=C(O)c1cccc(C(F)(F)F)c1` : inactive

# activation of `C[C@@H](O)[C@H](N)C(=O)O` = -0.487% [at 15.8 µM] (inactive)

Form: compound = `COc1ccc(-c2coc3cc(O)ccc3c2=O)cc1` ; activation = inactive

# activation of `CC(C)OC(=O)C(O)(CC(=O)O)CC(=O)O` = inactive

More entries:
The compound listed as `c1cnccn1` shows activation equal to inactive

Per the records, this compound ( `CCCC(=O)OCCc1ccccc1` ) has activation equal to inactive

GET /value?item= `C=C(C)C(=O)OCCCCCCCCCC` &field=activation returns inactive

compound `CNc1ccc([N+](=O)[O-])cc1` , activation observed: inactive

Lab note: `Clc1sc(Cl)c(Cl)c1Cl` gave activation of inactive

Given item `Sc1nc2ccccc2s1` , the value recorded as its activation is inactive

Kindly note the recorded activation for `CCCCOC(=O)CC` , which is inactive

For `Cc1cccc(C(=O)O)c1O` the compound record lists activation as inactive

Documented activation of `CCCC[P+](C)(CCCC)CCCC` : inactive

For `CN(C)C(=O)COC(=O)Cc1ccc(OC(=O)c2ccc(N=C(N)N)cc2)cc1` the compound record lists activation as inactive

Kindly note the recorded activation for `Nc1cc(Cl)c(O)c(Cl)c1` , which is inactive
